# measurement_target: NRAS WT (Homo sapiens (Human), UniProt P01111+P62937)
# Sequence (P01111 whole entry): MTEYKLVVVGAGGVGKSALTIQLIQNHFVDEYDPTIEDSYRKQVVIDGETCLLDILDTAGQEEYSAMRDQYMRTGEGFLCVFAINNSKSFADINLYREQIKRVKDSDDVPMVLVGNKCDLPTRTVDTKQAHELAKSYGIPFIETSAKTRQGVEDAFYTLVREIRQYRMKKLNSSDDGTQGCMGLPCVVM
# Sequence (P62937 whole entry): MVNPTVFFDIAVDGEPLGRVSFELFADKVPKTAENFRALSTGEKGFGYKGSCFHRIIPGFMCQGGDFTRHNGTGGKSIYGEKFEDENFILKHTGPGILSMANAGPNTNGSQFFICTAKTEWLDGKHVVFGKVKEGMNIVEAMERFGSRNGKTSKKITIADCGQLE
# assay_notes: Ras-Raf disruption/FRET/MOA assay (BRAF RBD, Cyclophilin A)
# Type: biochemical
pIC50: −log10 of the molar value.
measurement_kind: pIC50

>>> observed_value("CCn1c(-c2cccnc2[C@H](C)OC)c2c3cc(ccc31)-c1csc(n1)C[C@H](NC(=O)[C@H](C(C)C)N(C)C(=O)N1CC([C@@H](CO)OC)C1)C(=O)N1CCC[C@H](N1)C(=O)OCC(C)(C)C2 [Compound A514]")
"6.00 to 7.00"
>>> observed_value("CCn1c(-c2cccnc2[C@H](C)OC)c2c3cc(ccc31)-c1csc(n1)C[C@H](NC(=O)[C@H](C(C)C)N(C)C(=O)N1CCC[C@H]1c1ccccc1)C(=O)N1CCC[C@H](N1)C(=O)OCC(C)(C)C2 [Compound A599]")
"5.00 to 6.00"
>>> observed_value("CCn1c(-c2cccnc2[C@H](C)OC)c2c3cc(ccc31)-c1csc(n1)C[C@H](NC(=O)[C@H](C(C)C)N(C)C(=O)N(C)[C@H]1CCCN(C)C1)C(=O)N1CCC[C@H](N1)C(=O)OCC(C)(C)C2 [Compound A588]")
"6.00 to 7.00"
